src = the NIST ThermoML archive (doi:10.1016/j.jct.2019.02.011)

- recorded_conditions: 288.15 K; 10000 kPa; Liquid; Vibrating tube method
± gives the expanded uncertainty stated by the source.
assay_metric: mass density

>  <compound>
CCO [ethanol]

>  <assay_metric>
mass density

>  <test_value>
802.2 ± 0.54 kg/m3

$$$$
>  <compound>
CCCO [propan-1-ol]

>  <assay_metric>
mass density

>  <test_value>
814.7 ± 0.53 kg/m3

$$$$
>  <compound>
CO [methanol]

>  <assay_metric>
mass density

>  <test_value>
804.93 ± 0.53 kg/m3

$$$$
>  <compound>
COC(=O)OC [dimethyl carbonate]

>  <assay_metric>
mass density

>  <test_value>
1085.32 ± 0.58 kg/m3

$$$$
